System: human lung adenocarcinoma cell line A549
Assay: Cytotoxicity assay of camptothecin derivative toxins (Example A')
Format: cell-based
Details: Homo sapiens, A549, 72 h; Example A'; 3 days incubation; read-out: IC50 (nM) A549
observable: IC50 (nM)
Give bare numbers, in nM.

The examples below pair each entry with its known result.
{"mol_smiles": "CC[C@@]1(O)C(=O)OCc2c1cc1n(c2=O)Cc2c-1nc1cc(F)c(C)cc1c2NCCCCCO", "observable": "IC50", "reported_result": 377}
{"mol_smiles": "CC[C@@]1(O)C(=O)OCc2c1cc1n(c2=O)Cc2c-1nc1cc(F)c(C)cc1c2N1CCC(CO)CC1", "observable": "IC50", "reported_result": 156}
{"mol_smiles": "CC[C@@]1(O)C(=O)OCc2c1cc1n(c2=O)Cc2c-1nc1cc(F)c(C)cc1c2NCCO", "observable": "IC50", "reported_result": 387}

Now let's try a different one.
Please give the documented IC50 of CC[C@@]1(O)C(=O)OCc2c1cc1n(c2=O)Cc2c-1nc1cc(F)c(C)cc1c2NC/C=C/CO
278
